SYSTEM: Casein kinase I isoform delta (Homo sapiens) (UniProt P48730)
Sequence (P48730 whole entry, looked up, canonical isoform): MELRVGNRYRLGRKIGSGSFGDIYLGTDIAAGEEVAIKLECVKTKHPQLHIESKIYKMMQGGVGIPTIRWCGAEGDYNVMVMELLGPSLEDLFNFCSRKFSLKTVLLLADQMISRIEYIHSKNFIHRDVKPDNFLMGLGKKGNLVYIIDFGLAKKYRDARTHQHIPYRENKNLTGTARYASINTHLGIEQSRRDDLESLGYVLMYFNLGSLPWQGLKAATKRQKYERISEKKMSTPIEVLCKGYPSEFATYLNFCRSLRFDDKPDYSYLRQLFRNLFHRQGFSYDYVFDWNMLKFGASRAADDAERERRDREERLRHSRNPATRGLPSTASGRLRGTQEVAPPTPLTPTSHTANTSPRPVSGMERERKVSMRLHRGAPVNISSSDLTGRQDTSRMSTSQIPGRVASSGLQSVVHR
MEASUREMENT PARAMETERS: at 10 µM
Description: Millipore: Percentage of residual kinase activity of CSNK1D at 10uM relative to control. Control inhibitor: Jnk Inhibitor II at 100.0uM. Buffer: 8 mM MOPS pH 7.0, 0.2 mM EDTA
# cutoff 70% applies to residual activity; >= gives yes (1), < gives no (0)

Please review the following examples before continuing.
                                smiles_repr  answer_label
0  NC(=O)c1cccc(-c2cc(Nc3ccc(OC(F)(F)F)cc3)ncn2)c1       yes (1)
1  COc1cc2nccc(Oc3ccc(NC(=S)NC(=O)c4ccccc4C)cc3)c2cc1OC        no (0)

Q: Hi, just wondering whether CCCCc1c(-c2ccc(OC)cc2)[nH]c2nccnc12 shows residual activity of 70% or higher.
Ans: yes (1)

Q: Hi, just wondering whether COc1cc2ncnc(Nc3cccc(Cl)c3)c2cc1OC shows residual activity of 70% or higher.
Ans: no (0)

Q: Hi, just wondering whether O=C1NC(=O)c2c1c1c3ccccc3[nH]c1n1cncc21 shows residual activity of 70% or higher.
Ans: no (0)

Q: Hi, just wondering whether O=C1Nc2ccccc2/C1=C\c1c(Cl)[nH]c2ccccc12 shows residual activity of 70% or higher.
Ans: no (0)

Q: Hi, just wondering whether O=C1NC(=O)C(c2cn(CCCn3ccnc3)c3ccccc23)=C1Nc1ccccc1 shows residual activity of 70% or higher.
Ans: yes (1)

Q: Hi, just wondering whether CCCC(=O)Oc1ccc2[nH]c(C(=O)c3cc4ccccc4[nH]3)cc2c1 shows residual activity of 70% or higher.
Ans: yes (1)

Q: Hi, just wondering whether NCCNc1ncc(C(N)=O)c(Nc2cccc(C(F)(F)F)c2)n1 shows residual activity of 70% or higher.
Ans: no (0)

Q: Hi, just wondering whether O=c1cc(N2CCOCC2)oc2c1ccc1ccccc12 shows residual activity of 70% or higher.
Ans: yes (1)
